Biological target: human Gastric Inhibitory Peptide Receptor (GIPR) (human) (UniProt P48546)
Sequence (P48546 22-466 limits assumed): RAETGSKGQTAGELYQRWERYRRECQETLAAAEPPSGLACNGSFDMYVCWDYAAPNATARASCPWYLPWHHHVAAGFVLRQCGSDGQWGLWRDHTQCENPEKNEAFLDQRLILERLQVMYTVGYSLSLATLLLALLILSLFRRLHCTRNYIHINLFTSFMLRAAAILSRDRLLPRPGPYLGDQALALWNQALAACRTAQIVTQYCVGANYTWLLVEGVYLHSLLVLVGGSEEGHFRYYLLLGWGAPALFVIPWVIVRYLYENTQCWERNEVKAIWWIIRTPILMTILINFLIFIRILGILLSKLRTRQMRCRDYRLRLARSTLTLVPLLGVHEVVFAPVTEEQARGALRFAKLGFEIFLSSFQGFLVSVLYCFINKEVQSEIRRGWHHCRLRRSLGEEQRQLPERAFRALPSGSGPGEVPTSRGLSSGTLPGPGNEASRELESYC
Test: FACS competition vs biotinylated GIP-057 on CHO-K1-hGIPR cells; category A: pIC50 >8.0
*1 amine or outer side, *2 acyl side, *3 side chain or, on linkers, in order; H or OH if unused. Bridges are numbered along the chain shown (N, C = ends). [ ]: non-standard residue; d: D form. The star is where a group is joined. dE(AGLU) = D-glutamic acid bearing 1-amino-1-deoxy-D-glucitol; Pro(trans-4-NH2) = O=C([C@@H]1C[C@@H](N[*:3])CN1[*:1])[*:2]; DO3AM = NC(=O)CN1CCN(CC(N)=O)CCN(CC(=O)*)CCN(CC(N)=O)CC1; Trp(5-Cl) = N[C@@H](Cc1c[nH]c2ccc(Cl)cc12)C(=O)O; Pyridine(2,6-diCH2) = c1cc(C[*:1])nc(C[*:2])c1; APAc = 4-amino-1-carboxymethylpiperidine; Glutaryl = O=C(CCCC(=O)[*:2])[*:1]; AGLU = 1-amino-1-deoxy-D-glucitol; Ser(ΨH,HPro) = O=C(O)[C@@H]1COCN1; Api = NC1(C(=O)O)CCNCC1; Thp = NC1(C(=O)O)CCOCC1
List of pIC50 values.

1. Ac-DW[Trp(5-Cl)][Ser(ΨH,HPro)]E[dL]C[Thp]LIC-NH2 (linker 7-11 via Pyridine(2,6-diCH2)) [Ac-Asp-Trp-5Clw-Oxa-Glu-leu-[Cys(2Lut)-Thp-Leu-Ile-Cys]-NH2] = > 8 pic50

// next entry
Query string: Query (binder): {AGLU-Glutaryl}-DW[Trp(5-Cl)][Pro(trans-4-NH2)]E[dL]C[Api](DO3AM)LIC-{APAc-dE(AGLU)-NH2} (linker 7-11 via Pyridine(2,6-diCH2)) [AGLU-Glutar-Asp-Trp-5Clw-Tap-Glu-leu-[Cys(2Lut)-Apc(DOTAM)-Leu-Ile-Cys]-APAc-glu(AGLU)-NH2] ; field requested: pIC50
Result string: > 8 pic50
